species on record: Bos taurus; assay: Inhibition of bovine placenta alkaline phosphatase using p-nitrophenyl phosphate as substrate at 8.7 x 10^-5 M up to 35 mins by spectrophotometry
Activity calls are given as the source filed them. No cut-off for these calls is given here.
READOUT TYPE: inhibition

1. c1ccc([C@@H]2CN3CCSC3=N2)cc1 (stereo in doubt; (-)) = 75%
2. c1ccc([C@H]2CN3CC[Se]C3=N2)cc1 = 78%
3. c1ccc([C@@H]2CN3CCSC3=N2)cc1 (stereo in doubt; (+)) = inactive
4. c1ccc([C@@H]2CN3CC[Se]C3=N2)cc1 = inactive

----------
target: UniProtKB P05187; test: Inhibition of human placenta alkaline phosphatase using p-nitrophenyl phosphate as substrate at 8.7 x 10^-5 M up to 35 mins by spectrophotometry
Sequence (P05187 whole entry): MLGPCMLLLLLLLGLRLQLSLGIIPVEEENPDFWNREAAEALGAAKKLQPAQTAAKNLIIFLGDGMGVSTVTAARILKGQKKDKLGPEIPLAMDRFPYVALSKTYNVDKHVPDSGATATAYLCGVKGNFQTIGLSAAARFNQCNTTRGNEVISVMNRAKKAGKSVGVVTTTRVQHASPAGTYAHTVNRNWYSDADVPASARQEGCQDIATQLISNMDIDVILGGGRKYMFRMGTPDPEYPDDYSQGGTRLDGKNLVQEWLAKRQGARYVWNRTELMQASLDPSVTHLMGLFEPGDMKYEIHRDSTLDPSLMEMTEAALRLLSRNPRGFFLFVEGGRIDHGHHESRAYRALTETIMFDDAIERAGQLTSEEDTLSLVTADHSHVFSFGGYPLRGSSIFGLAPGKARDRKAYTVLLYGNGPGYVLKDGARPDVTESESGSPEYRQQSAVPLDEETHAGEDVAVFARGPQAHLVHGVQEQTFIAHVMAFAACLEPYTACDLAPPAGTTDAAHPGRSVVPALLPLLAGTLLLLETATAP
The source made the active and inactive calls. The calls are words filed in the database; no cut-off is given here.
READOUT TYPE: inhibition

1. c1ccc([C@@H]2CN3CCSC3=N2)cc1 (stereo in doubt; (+)) = inactive
2. c1ccc([C@@H]2CN3CC[Se]C3=N2)cc1 = inactive
3. c1ccc([C@H]2CN3CC[Se]C3=N2)cc1 = 0%
4. c1ccc([C@@H]2CN3CCSC3=N2)cc1 (stereo in doubt; (-)) = 0%
